# Assay system: F508delCFTR (Homo sapiens, UniProt P13569, DEL508-508)
# Construct: expressed in transfected cells; host or cells: CFBE41o- human lung-derived epithelial cells (CFBE41o-F508delCFTR-HRP), doxycycline-inducible
# Sequence (P13569 with tags, fused parts or gaps DEL508-508): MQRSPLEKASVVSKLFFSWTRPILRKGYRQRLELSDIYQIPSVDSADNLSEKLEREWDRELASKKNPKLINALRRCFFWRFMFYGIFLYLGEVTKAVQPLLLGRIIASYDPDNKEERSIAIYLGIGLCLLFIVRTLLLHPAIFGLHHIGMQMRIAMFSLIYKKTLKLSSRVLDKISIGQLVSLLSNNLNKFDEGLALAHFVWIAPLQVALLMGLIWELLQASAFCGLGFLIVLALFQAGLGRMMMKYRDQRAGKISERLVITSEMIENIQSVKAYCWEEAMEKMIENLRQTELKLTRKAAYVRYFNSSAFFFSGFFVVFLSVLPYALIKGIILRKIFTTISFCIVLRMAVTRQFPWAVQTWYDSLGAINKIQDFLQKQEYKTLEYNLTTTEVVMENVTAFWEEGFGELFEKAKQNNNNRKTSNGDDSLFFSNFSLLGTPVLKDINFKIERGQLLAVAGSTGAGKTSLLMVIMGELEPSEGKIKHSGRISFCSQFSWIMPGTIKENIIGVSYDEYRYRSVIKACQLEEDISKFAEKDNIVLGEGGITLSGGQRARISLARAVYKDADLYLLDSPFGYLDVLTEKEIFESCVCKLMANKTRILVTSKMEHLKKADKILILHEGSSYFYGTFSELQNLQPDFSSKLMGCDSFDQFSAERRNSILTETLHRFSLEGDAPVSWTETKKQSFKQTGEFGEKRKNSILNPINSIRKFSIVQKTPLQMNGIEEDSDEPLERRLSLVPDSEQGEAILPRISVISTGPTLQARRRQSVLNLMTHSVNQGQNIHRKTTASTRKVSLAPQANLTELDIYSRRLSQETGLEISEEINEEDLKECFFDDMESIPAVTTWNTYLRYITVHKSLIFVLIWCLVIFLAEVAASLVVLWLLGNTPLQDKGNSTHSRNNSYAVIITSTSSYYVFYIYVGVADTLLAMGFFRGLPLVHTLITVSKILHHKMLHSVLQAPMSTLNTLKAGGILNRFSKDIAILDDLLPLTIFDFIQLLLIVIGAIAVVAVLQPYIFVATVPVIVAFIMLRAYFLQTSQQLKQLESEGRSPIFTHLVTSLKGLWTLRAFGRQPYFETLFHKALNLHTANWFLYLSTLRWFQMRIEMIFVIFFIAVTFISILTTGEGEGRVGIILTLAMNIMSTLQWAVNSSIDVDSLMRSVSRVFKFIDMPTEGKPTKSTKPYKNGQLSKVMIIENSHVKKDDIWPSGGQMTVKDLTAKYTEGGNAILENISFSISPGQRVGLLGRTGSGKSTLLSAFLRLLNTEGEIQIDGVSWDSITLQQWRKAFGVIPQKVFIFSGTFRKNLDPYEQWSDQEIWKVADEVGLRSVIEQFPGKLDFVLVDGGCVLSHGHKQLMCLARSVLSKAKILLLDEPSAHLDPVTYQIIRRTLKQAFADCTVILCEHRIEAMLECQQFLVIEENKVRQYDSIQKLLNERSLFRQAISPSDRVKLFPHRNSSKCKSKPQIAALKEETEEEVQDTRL
# Test protocol: Cell Surface Expression-Horse Radish Peroxidase (CSE-HRP) assay, test compound with co-corrector
# Format: cell-based
# Experimental conditions: CSE-HRP assay, test compound with 2 μM co-corrector
Reported values of EC50 for individual entries

| Molecule | EC50 |
| --- | --- |
| COc1ccc(C(=O)O)c2c1C(C(=O)NS(=O)(=O)c1cccc3ccccc13)CC2 (centres unmarked) | 3 to 10 µM |
| CCC1(C(=O)NS(=O)(=O)c2cc(Cl)ccc2Cl)CCc2c(Cl)cccc21 (centres unmarked) | ≥ 10 µM |
| COc1ccc2c(c1OC)CC2C(=O)NS(=O)(=O)c1ccccc1C (centres unmarked) | ≥ 10 µM |
| CCC1(C(=O)NS(=O)(=O)c2ccccc2C#N)CCc2c(Cl)cccc21 (centres unmarked) | ≥ 10 µM |
| CCC1(C(=O)NS(=O)(=O)c2ccc(Cl)cc2Cl)CCc2c(Cl)cccc21 (centres unmarked) | < 3 µM |
| CCC1(C(=O)NS(=O)(=O)c2ccccc2C(F)(F)F)CCc2c(Cl)cccc21 (centres unmarked) | ≥ 10 µM |
| Cc1ccc2c(c1)CCC2(C)C(=O)NS(=O)(=O)c1cccc(N)n1 (centres unmarked) | 3 to 10 µM |
| Cc1ccccc1S(=O)(=O)NC(=O)C1CCc2c(-c3cnn(C)c3)cccc21 (centres unmarked) | ≥ 10 µM |
| CCC1(C(=O)N(C)S(=O)(=O)c2cccc3ccccc23)CCc2c(Cl)cccc21 (centres unmarked) | ≥ 10 µM |
| CCC1(C(=O)NS(=O)(=O)c2ccc(Cl)cc2)CCc2c(Cl)cccc21 (centres unmarked) | 3 to 10 µM |
| COCCN(C)CCC1(C(=O)NS(=O)(=O)c2cccc3ccccc23)CCc2c(Cl)cccc21 (centres unmarked) | 3 to 10 µM |
| CCC1(C(=O)NS(=O)(=O)c2ccc(OC(F)(F)F)cc2)CCc2c(Cl)cccc21 (centres unmarked) | 3 to 10 µM |
| CCC1(C(=O)NS(=O)(=O)C2(C)CC2)CCc2c(Cl)cccc21 (centres unmarked) | 3 to 10 µM |
| COc1ccc(N2CCOCC2)c2c1CCCC2C(=O)NS(=O)(=O)c1cccc2ccccc12 (centres unmarked) | ≥ 10 µM |
| Cc1ccccc1S(=O)(=O)NC(=O)C1CCc2c(-c3ccc(N4CCOCC4)nc3)cccc21 (centres unmarked) | 3 to 10 µM |
| Cc1cnccc1-c1cccc2c1CCC2C(=O)NS(=O)(=O)c1ccccc1C (centres unmarked) | ≥ 10 µM |
| CCC1(C(=O)NS(=O)(=O)c2cccc(N(C)CCOC)c2C)CCc2c(Cl)cccc21 (centres unmarked) | 3 to 10 µM |
| CCC1(C(=O)NS(=O)(=O)c2ccc(OC)cc2)CCc2c(Cl)cccc21 (centres unmarked) | 3 to 10 µM |
| COc1ccc(Br)c2c1C(C(=O)NS(=O)(=O)c1cccnc1N)CC2 (centres unmarked) | 3 to 10 µM |
| Cc1ccccc1S(=O)(=O)NC(=O)C1CCc2c(-c3ccnc(F)c3)cccc21 (centres unmarked) | 3 to 10 µM |
| COCC1(C(=O)NS(=O)(=O)c2cccc3ccccc23)CCc2c(Cl)cccc21 (centres unmarked) | ≥ 10 µM |
| CCC1(C(=O)NS(=O)(=O)c2cccc3c2C(=O)N(C)C3=O)CCc2c(Cl)cccc21 (centres unmarked) | ≥ 10 µM |
| CCC1(C(=O)NS(=O)(=O)c2c(F)cccc2F)CCc2c(Cl)cccc21 (centres unmarked) | < 3 µM |
| Nc1cccc(S(=O)(=O)NC(=O)C2CCCc3cccc(Cl)c32)n1 (centres unmarked) | ≥ 10 µM |
| Cc1ccc(-c2cccc3c2CCC3C(=O)NS(=O)(=O)c2ccccc2C)o1 (centres unmarked) | 3 to 10 µM |
| CCC1(C(=O)NS(=O)(=O)c2cccc(C#N)c2)CCc2c(Cl)cccc21 (centres unmarked) | 3 to 10 µM |
| COc1ccc(-c2ccc(C(F)(F)F)cc2)c2c1CCCC2C(=O)NS(=O)(=O)c1cccc2ccccc12 (centres unmarked) | < 3 µM |
| Cc1ccccc1S(=O)(=O)NC(=O)C1CCc2c(-c3ccn[nH]3)cccc21 (centres unmarked) | ≥ 10 µM |
| COc1ccc(CO)c2c1C(C(=O)NS(=O)(=O)c1cccc3ccccc13)CC2 (centres unmarked) | 3 to 10 µM |
| COc1ccc(N2CCCC2)c2c1CCCC2C(=O)NS(=O)(=O)c1cccc2ccccc12 (centres unmarked) | ≥ 10 µM |
| O=C(NS(=O)(=O)c1cccc2ccccc12)C1(CCN2CCCC2)CCc2c(Cl)cccc21 (centres unmarked) | 3 to 10 µM |
| CCC1(C(=O)NS(=O)(=O)c2ccc(CN(C)C)cc2)CCc2c(Cl)cccc21 (centres unmarked) | ≥ 10 µM |

Recorded values, source patent US20180244611A1.
